- Test system: SK-LU-1
- Procedure text: relative viability (nuclei count vs DMSO), 5 days (fraction); higher = more cells survive
- Condition: first compound 0.01 µM
Field: relative viability. Provide a value for each of the molecules that follow.
Keep the answer to the number alone.

# get_value(readout='relative viability', item= NC(=O)Nc1cc(-c2cccc(F)c2)sc1C(=O)N[C@H]1CCCNC1 [AZD7762] + N=C(N)NC(=N)NCCc1ccccc1 [Phenformin] (partner 250 µM) )
0.563

# get_value(readout='relative viability', item= NC(=O)Nc1cc(-c2cccc(F)c2)sc1C(=O)N[C@H]1CCCNC1 [AZD7762] + CS(=O)(=O)CCNCc1ccc(-c2ccc3ncnc(Nc4ccc(OCc5cccc(F)c5)c(Cl)c4)c3c2)o1 [Lapatinib] (partner 2 µM) )
0.943

# get_value(readout='relative viability', item= NC(=O)Nc1cc(-c2cccc(F)c2)sc1C(=O)N[C@H]1CCCNC1 [AZD7762] + Cc1cc(Nc2cc(N3CCN(C)CC3)nc(Sc3ccc(NC(=O)C4CC4)cc3)n2)n[nH]1 [Tozasertib] (partner 0.1 µM) )
0.374

# get_value(readout='relative viability', item= NC(=O)Nc1cc(-c2cccc(F)c2)sc1C(=O)N[C@H]1CCCNC1 [AZD7762] + Nc1nc2[nH]cc(CCc3ccc(C(=O)N[C@@H](CCC(=O)O)C(=O)O)cc3)c2c(=O)[nH]1 [Pemetrexed] (partner 0.2 µM) )
1.14

# get_value(readout='relative viability', item= NC(=O)Nc1cc(-c2cccc(F)c2)sc1C(=O)N[C@H]1CCCNC1 [AZD7762] + O=C(CCCCCCC(=O)Nc1ccccc1)NO [Vorinostat] (partner 1 µM) )
0.909

# get_value(readout='relative viability', item= NC(=O)Nc1cc(-c2cccc(F)c2)sc1C(=O)N[C@H]1CCCNC1 [AZD7762] + Nc1ncn([C@H]2C[C@H](O)[C@@H](CO)O2)c(=O)n1 [Decitabine] (partner 2 µM) )
0.609

# get_value(readout='relative viability', item= NC(=O)Nc1cc(-c2cccc(F)c2)sc1C(=O)N[C@H]1CCCNC1 [AZD7762] + C[C@@H](Oc1cc(-c2cnn(C3CCNCC3)c2)cnc1N)c1c(Cl)ccc(F)c1Cl [Crizotinib] (partner 1 µM) )
0.991

# get_value(readout='relative viability', item= NC(=O)Nc1cc(-c2cccc(F)c2)sc1C(=O)N[C@H]1CCCNC1 [AZD7762] + Cc1nc(Nc2ncc(C(=O)Nc3c(C)cccc3Cl)s2)cc(N2CCN(CCO)CC2)n1 [Dasatinib] (partner 0.075 µM) )
0.183
